- Test system: SD rats
- Condition notes: SD, rat, in vivo, iv
For each record, write down the corresponding MLD.
One number for each entry, in mg/kg.

CCOC(=O)C(C)N1N=C(c2ccccn2)c2cc(Br)ccc2N(C)C1=O (centres unmarked): 20

Would you be so kind as to report MLD for each listed record?
1. CN1C(=O)N(CC(=O)OC2COC2)N=C(c2ccccn2)c2cc(Br)ccc21
2. CN1C(=O)N(CCc2cc(Br)no2)N=C(c2ccccn2)c2cc(Br)ccc21
3. Cc1cnc2n1-c1ccc(Br)cc1C(c1ccccn1)=NN2CCOC(=O)C(C)C
4. CN1C(=O)N(CCC#N)N=C(c2ccccn2)c2cc(Br)ccc21
5. CC(C)OC(=O)CN1N=C(c2ccccn2)c2cc(Br)ccc2N(C(C)C)C1=O

1. 40
2. 40
3. 10
4. 40
5. 40

====

For each record, write down the corresponding TI.
- Test system: SD rats
- Condition notes: SD, rat, in vivo

C=CC(C)OC(=O)CN1N=C(c2ccccn2)c2cc(Br)ccc2N(C)C1=O (stereo not shown): 4
CC(C)OC(=O)CCN1N=C(c2ccccn2)c2cc(Br)ccc2N(C)C1=O: 1.4
CN1C(=O)N(COC(=O)CCl)N=C(c2ccccn2)c2cc(Br)ccc21: 1.3

Requested field: TI. Item: CCOc1nonc1CCN1N=C(c2ccccn2)c2cc(Br)ccc2N(C)C1=O
>1

====

- Tested on: SD rats
- Condition notes: SD, rat, in vivo
For each record, write down the corresponding TI.

CCC(CC)OC(=O)CN1N=C(c2ccccn2)c2cc(Br)ccc2N(C)C1=O: 1.5

Would you be so kind as to report TI for each listed record?
1. CC(C)C(=O)CN1N=C(c2ccccn2)c2cc(Br)ccc2N(C)C1=O
2. CCOC(=O)CN1N=C(c2ccccn2)C(Cl)=CN(C)C1=O
3. CC(C)COC(=O)CN1N=C(c2ccccn2)c2cc(Br)ccc2N(C)C1=O

[1.3, ">1", 3]

Would you be so kind as to report TI for each listed record?
1. Cc1cnc2n1-c1ccc(Br)cc1C(c1ccccn1)=NN2COC(=O)N(C)C
2. CC(C)n1nnnc1CCN1N=C(c2ccccn2)c2cc(Br)ccc2N(C)C1=O
3. CN1C(=O)N(CCc2cccs2)N=C(c2ccccn2)c2cc(Br)ccc21
4. CCOC(=O)CN1N=C(c2ccccn2)C=CN(C)C1=O
5. CC[C@@H](C)OC(=O)CN1N=C(c2ccccn2)c2cc(Br)ccc2N(C)C1=O
6. CN1C(=O)N(CC(=O)OC2COC2)N=C(c2ccccn2)c2cc(Br)ccc21
7. CC(F)C(=O)OCCN1N=C(c2ccccn2)c2cc(Br)ccc2N(C)C1=O (stereo not shown)

2
3
>1
2
6
4
>1

====

- System: SD rats
- Condition notes: SD, rat, in vivo, iv
For each record, write down the corresponding log10 MLD.
Friendly reminder: values = log10 of MLD, unit mg/kg.

Would you be so kind as to report log10 MLD for each listed record?
1. CC(C)OC(=O)OCN1N=C(c2ccccn2)c2cc(Br)ccc2N(C)C1=O
2. CC(C)OC(=O)CCN1N=C(c2ccccn2)c2cc(Br)ccc2N(C)C1=O
3. Cc1c[n+]2c3n1-c1ccc(Br)cc1C(c1ccccn1)=NN3CC2
4. CCN1C(=O)N(CC(=O)OC(C)C)N=C(c2ccccn2)c2cc(Br)ccc21
5. CCN(C)C(=O)OCN1N=C(c2ccccn2)c2cc(Br)ccc2N(C)C1=O
6. CN1C(=O)N(CC(=O)OC2CC2)N=C(c2ccccn2)c2cc(Br)ccc21

1: 1.62; 2: 1.74; 3: 1.00; 4: 1.48; 5: 1.48; 6: 1.60

====

- System: SD rats
- Condition notes: rat, in vivo
For each record, write down the corresponding TI.
Give bare numbers.

Cc1cnc2n1-c1ccc(Br)cc1C(c1ccccn1)=NC2CCOC(=O)CCl (stereo not drawn) [Compound 148]: 33.3
Cc1cnc2n1-c1ccc(Br)cc1C(c1ccccn1)=NC2COC(=O)c1ccccc1 (stereo not drawn) [Compound 191]: 6.8

Requested field: TI. Item: Cc1cnc2n1-c1ccc(Br)cc1C(c1ccccn1)=NC2CCOC(=O)N(C)C (stereo not drawn) [Compound 156]
11.1

====

- System: SD rats
- Condition notes: SD, rat, in vivo
For each record, write down the corresponding TI.
Answers are plain numbers.

Would you be so kind as to report TI for each listed record?
1. C=CC1(OC(=O)CN2N=C(c3ccccn3)c3cc(Br)ccc3N(C)C2=O)COC1
2. CN1C(=O)N(CC(=O)OC2CC2)N=C(c2ccccn2)c2cc(Br)ccc21

1. 2
2. 2.7

====

- Tested on: SD rats
- Condition notes: SD, rat, in vivo
# label = 1.0 if TI < 4 else 0.0

Worked cases, answers included:
CC(C)OC(=O)CN1N=C(c2ccccn2)c2cc(Br)ccc2N(C)C1=O: 0.0
CCN(C)C(=O)OCN1N=C(c2ccccn2)c2cc(Br)ccc2N(C)C1=O: 1.0
CN1C(=O)N(COC(=O)CCCl)N=C(c2ccccn2)c2cc(Br)ccc21: 1.0
CC(C)C(=O)OCN1N=C(c2ccccn2)c2cc(Br)ccc2N(C)C1=O: 1.0

Now take the following compound into account.
Determine whether this compound shows TI lower than 4 (ties excluded): CC(C)C(=O)OCCN1N=C(c2ccccn2)c2cc(Br)ccc2N(C)C1=O
1.0

====

- System: SD rats
- Protocol details: animal or person
- Format: in vivo
- Condition notes: Rattus norvegicus, iv, read-out: Minimal effective analgesic dose
For each record, write down the corresponding minimal effective dose.
Answers are plain numbers, in mg/kg.

Solved cases below.
CN1C(=O)N(CC(=O)OC2(C)COC2)N=C(c2ccccn2)c2cc(Br)ccc21 [Compound 253]: 20
C=CC(C)OC(=O)CN1N=C(c2ccccn2)c2cc(Br)ccc2-n2c(C)cnc21 (centres unmarked) [Compound 310]: 20
CCC(CC)OC(=O)CN1N=C(c2ccccn2)c2cc(Br)ccc2N(C)C1=O [Compound 247]: 20

Would you be so kind as to report minimal effective dose for each listed record?
1. C=CC(C)OC(=O)CN1N=C(c2ccccn2)c2cc(Br)ccc2N(C)C1=O (centres unmarked) [Compound 248]
2. CN1C(=O)N(COC(=O)CCCl)N=C(c2ccccn2)c2cc(Br)ccc21 [Compound 290]
3. CCOC(=O)CN1N=C(c2ccccn2)C(Br)=CN(C)C1=O [Compound 346]
4. CC(C)N(C)C(=O)OCN1N=C(c2ccccn2)c2cc(Br)ccc2N(C)C1=O [Compound 293]
5. CN(C)C(=O)OCN1N=C(c2ccccn2)c2cc(Br)ccc2N(C)C1=O [Compound 291]

20
15
18.4
15
15

Would you be so kind as to report minimal effective dose for each listed record?
1. CC(C)OC(=O)CCN1N=C(c2ccccn2)c2cc(Br)ccc2N(C)C1=O [Compound 260]
2. Cc1cnc2n1-c1ccc(Br)cc1C(c1ccccn1)=NN2CCOC(=O)C(C)C [Compound 315]
3. CC(C)OC(=O)OCN1N=C(c2ccccn2)c2cc(Br)ccc2N(C)C1=O [Compound 289]
4. C#C[C@H](C)OC(=O)CN1N=C(c2ccccn2)c2cc(Br)ccc2N(C)C1=O [Compound 252]
5. Brc1ccc2c(c1)C(c1ccccn1)=NN1CCN=C1N2 [Compound 323]

[40, 30, 20, 30, 30]

====

For each record, write down the corresponding log10 MLD.
- System: SD rats
- Condition notes: rat, in vivo, iv
Friendly reminder: values = log10 of MLD, unit mg/kg.

Solved cases below.
CCn1nnc(CCN2N=C(c3ccccn3)c3cc(Br)ccc3N(C)C2=O)n1: 1.60
CCOC(=O)CN1N=C(c2ccccn2)C=CN(C)C1=O: 1.60
Cc1cnc2n1-c1ccc(Br)cc1C(c1ccccn1)=NC2COC(=O)c1ccccc1 (stereo not drawn): 1.53
Cc1cnc2n1-c1ccc(Br)cc1C(c1ccccn1)=NC2CCOCc1ccccc1 (stereo not drawn): 0.58
CCC(=O)OCC1N=C(c2ccccn2)c2cc(Br)ccc2-n2c(C)cnc21 (stereo not drawn): 1.48

Would you be so kind as to report log10 MLD for each listed record?
1. CC(C)OC(=O)OC1N=C(c2ccccn2)c2cc(Br)ccc2N(C)C1=O (stereo not drawn)
2. CC(C)C(=O)CN1N=C(c2ccccn2)c2cc(Br)ccc2N(C)C1=O

1. 1.59
2. 1.30

Requested field: log10 MLD. Item: C=CC(=O)OCCC1N=C(c2ccccn2)c2cc(Br)ccc2-n2c(C)cnc21 (stereo not drawn)
1.47

====

- System: SD rats
- Condition notes: SD, rat, in vivo, iv
Measured quantity: MLD (mg/kg)
Give bare numbers, in mg/kg.

Solved cases below.
CN(C)C(=O)OCN1N=C(c2ccccn2)c2cc(Br)ccc2N(C)C1=O: 30
CC(C)OC(=O)CN1N=C(c2ccccn2)c2cc(Br)ccc2N(C)C1=O: 40
CCN(C(=O)OCN1N=C(c2ccccn2)c2cc(Br)ccc2N(C)C1=O)C(C)C: 15

Now for the molecule whose MLD we want.
Requested field: MLD. Item: Cc1cnc2n1-c1ccc(Br)cc1C(c1ccccn1)=NN2CC(=O)OC1COC1
30
